// provenance: patent US11208381B2

# protocol-summary: Pharmacokinetic measurements in rats, intra-tracheal dosing
# Format: in vivo
# condition-description: rat, i.t. versus i.v., 6 h
measurement-label: Lung conc i.t./i.v. Ratio at time 6 h

| compound | Lung conc i.t./i.v. Ratio at time 6 h |
| --- | --- |
| COC(=O)c1cc2c(cc1C)/C(=C(/Nc1ccc(C(=O)NCC3CCN(C)CC3)cc1)c1ccccc1)C(=O)N2 [Example 3] | 15 |

1 = COC(=O)c1cc2c(cc1C)/C(=C(/Nc1ccc(C(=O)NCCN3CCNC(=O)C3)cc1)c1ccccc1)C(=O)N2 [Example 9]
2 = COC(=O)c1cc2c(cc1C)/C(=C(/Nc1ccc(C(=O)NCCN3CCC(N(C)C)CC3)cc1)c1ccccc1)C(=O)N2 [Example 6]
[in] Field: lower Lung conc i.t./i.v. Ratio at time 6 h | Options: 1 / 2 I would appreciate it if you answered with the label of your choice.
[out] 2
(2: 8.3, 1: 45)
